Some binders, each annotated with its measured A450.
- targetOfAssay: T1, glutathione S-transferase (GST) (UniProt P08515 1-218 = GST)
- T1 construct: also called carrier protein GST
- T1 sequence (P08515 whole entry): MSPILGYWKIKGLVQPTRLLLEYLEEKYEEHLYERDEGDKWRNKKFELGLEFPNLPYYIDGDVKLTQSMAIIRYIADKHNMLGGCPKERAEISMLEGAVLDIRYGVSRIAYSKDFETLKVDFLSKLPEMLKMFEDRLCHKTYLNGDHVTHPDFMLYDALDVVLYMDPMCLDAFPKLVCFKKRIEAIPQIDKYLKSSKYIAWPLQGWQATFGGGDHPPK
- protocolDetails: ELISA, Ab 0.500 µg/ml
quantity: A450 (A450)

binder	measurement
rabbit monoclonal anti-mouse/human Id3, clone #BCH-4/#6-1 (antibody, V domains shown, Rabbit IgG from a rabbit hybridoma; also called m/h Id3 MoAb 6-1) VH: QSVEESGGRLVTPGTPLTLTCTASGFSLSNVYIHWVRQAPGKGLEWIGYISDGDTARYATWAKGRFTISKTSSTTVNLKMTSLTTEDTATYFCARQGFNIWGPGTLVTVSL VL: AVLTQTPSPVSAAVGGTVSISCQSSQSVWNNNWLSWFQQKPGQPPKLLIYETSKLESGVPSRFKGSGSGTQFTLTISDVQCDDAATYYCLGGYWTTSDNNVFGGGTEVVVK	0.054
rabbit monoclonal anti-mouse/human Id3, clone #BCH-4/#16-1 (antibody, V domains shown, Rabbit IgG from a rabbit hybridoma; also called m/h Id3 MoAb 16-1) VH: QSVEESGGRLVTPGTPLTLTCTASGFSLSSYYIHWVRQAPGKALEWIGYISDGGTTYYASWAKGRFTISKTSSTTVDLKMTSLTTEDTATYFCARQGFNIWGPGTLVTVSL VL: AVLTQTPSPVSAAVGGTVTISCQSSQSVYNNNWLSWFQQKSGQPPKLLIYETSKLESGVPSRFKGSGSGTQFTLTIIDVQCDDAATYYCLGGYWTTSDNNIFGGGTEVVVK	0.053
rabbit monoclonal anti-human Id3, clone #BCH-4/#3-3 (antibody, V domains shown, Rabbit IgG from a rabbit hybridoma; also called h Id3 MoAb 3-3) VH: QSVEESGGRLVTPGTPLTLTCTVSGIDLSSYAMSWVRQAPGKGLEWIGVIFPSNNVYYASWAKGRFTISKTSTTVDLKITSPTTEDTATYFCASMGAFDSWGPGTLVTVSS VL: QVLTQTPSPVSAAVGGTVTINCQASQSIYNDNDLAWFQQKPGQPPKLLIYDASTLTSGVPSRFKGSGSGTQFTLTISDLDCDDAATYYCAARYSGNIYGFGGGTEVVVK	0.05
rabbit monoclonal anti-mouse/human Id3, clone #BCH-4/#42-1 (antibody, V domains shown, Rabbit IgG from a rabbit hybridoma; also called m/h Id3 MoAb 42-1) VH: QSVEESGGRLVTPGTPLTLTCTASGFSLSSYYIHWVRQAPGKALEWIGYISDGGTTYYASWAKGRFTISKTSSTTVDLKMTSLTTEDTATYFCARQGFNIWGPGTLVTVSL VL: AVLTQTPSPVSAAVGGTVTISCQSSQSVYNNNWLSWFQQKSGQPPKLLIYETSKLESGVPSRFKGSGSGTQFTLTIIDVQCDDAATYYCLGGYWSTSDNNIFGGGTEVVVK	0.049
rabbit monoclonal anti-mouse/human Id3, clone #BCH-4/#17-3 (antibody, V domains shown, Rabbit IgG from a rabbit hybridoma; also called m/h Id3 MoAb 17-3; BCH-3/#17-3) VH: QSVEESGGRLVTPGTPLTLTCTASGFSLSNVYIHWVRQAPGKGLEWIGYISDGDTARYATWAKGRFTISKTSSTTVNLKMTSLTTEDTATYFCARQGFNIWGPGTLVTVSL VL: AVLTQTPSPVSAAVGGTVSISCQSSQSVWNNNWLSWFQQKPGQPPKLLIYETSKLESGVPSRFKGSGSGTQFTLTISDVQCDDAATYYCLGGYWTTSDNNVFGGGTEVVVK	0.053
